- Test system: ReNcells Ubi-SR39h (proliferating)
- PROTOCOL_TEXT: ATP-based assay, EC50 in proliferating neural progenitors
- Type: cell-based
- TEST_SETTINGS: Homo sapiens; 96 h GCV exposure; 24-point dose response; n = 3; read-out: EC50 of GCV, ReNcell Ki67-SR39h (second line of the picture's table)
- Protocol: We then compared the ability of GCV to kill proliferating NPC that expressed the SR39h thymidine kinase under the control of the ubiquitin (ReNcells Ubi-SR39h) or the Ki67 promoter. (ReNcells Ki67-SR39h) (Figure 4). […] Figure 4 EC50 and kinetics of GCV-induced cell death in proliferating and post-mitotic ReNcells. […] Cell viability was measured every 24 h using a bioluminescent ATP-based assay (n = 3). […] Cell viability was measured using an ATP-based assay. […]
REPORTED_ENDPOINT: EC50 (nM)

* Nc1nc(O)c2ncn(COC(CO)CO)c2n1 [GCV, ganciclovir] | 2.1

* * *

- Test system: hESC (HS420) expressing Ki67-SR39
- PROTOCOL_TEXT: ATP-based cell survival assay, GCV-induced cell death
- Set-up: species or system human
- TEST_SETTINGS: Homo sapiens, 96 h, read-out: EC50 of GCV (cell survival)
REPORTED_ENDPOINT: EC50 (nM)

• Nc1nc(O)c2ncn(COC(CO)CO)c2n1 [GCV, ganciclovir] = 2

* * *

- Test system: hESC (HS420) expressing Ki67-SR39h
- PROTOCOL_TEXT: ATP-based cell survival assay, nucleoside-induced cell death
- TEST_SETTINGS: read-out: EC50 (cell survival); 96 h nucleoside exposure; SR39h under Ki67 promoter
REPORTED_ENDPOINT: EC50 (nM)

- CC(C)[C@H](N)C(=O)OCC(CO)OCn1cnc2c(=O)nc(N)[nH]c21 (stereo partly shown): 32

* * *

- Test system: hESC (HS420) expressing Ki67-wt-TK
- PROTOCOL_TEXT: ATP-based cell survival assay, GCV-induced cell death
- TEST_SETTINGS: Homo sapiens; 96 h GCV exposure; wt-TK under Ki67 promoter
REPORTED_ENDPOINT: EC50

* Nc1nc(O)c2ncn(COC(CO)CO)c2n1 | 96 nM

The measurements presented in this section are drawn from paper PMC8834506.
